Origin of values: paper PMC4514850

- assay-overview: pharmacokinetic test in Sprague-Dawley rats
- Type: in vivo
- experimental-setup: male, plasma, iv, i.v. 40 mg/kg, rat, mean ± SEM, n = 5
measurement-kind: C0

1. CCc1cc(-c2nc(C)c(COCc3ccc(Br)cc3)s2)ccn1; 25700 ng/mL

###

- assay-overview: pharmacokinetic test in Sprague-Dawley rats
- Type: in vivo
- experimental-setup: male, plasma, po, p.o. 40 mg/kg, rat, mean ± SEM, n = 5
measurement-kind: half-life (h)

1. CCc1cc(-c2nc(C)c(COCc3ccc(Br)cc3)s2)ccn1; 2.94

###

- assay-overview: pharmacokinetic test in Sprague-Dawley rats
- Format: in vivo
- experimental-setup: male, plasma, po, p.o. 40 mg/kg, rat, mean ± SEM, n = 5
measurement-kind: Tmax (h)

1) CCc1cc(-c2nc(C)c(COCc3ccc(Br)cc3)s2)ccn1; 1.4
